- System: Penicillium chrysogenum
- protocolDescription: Antimicrobial activity against Penicillium chrysogenum after 24 hrs by broth dilution method
- Type: functional
metricName: MIC

Cc1cc(SCc2nc3ccccc3o2)nc(SCc2nc3ccccc3o2)n1    100 µg/mL
CC(=O)N1CCN(c2ccc(OCC3COC(Cn4ccnc4)(c4ccc(Cl)cc4Cl)O3)cc2)CC1 (stereo not given) [KETOCONAZOLE]    12.5 µg/mL
Cc1cc(SCc2nc3ccccc3[nH]2)nc(SCc2nc3ccccc3[nH]2)n1    12.5 µg/mL

Please examine the following record next.
Request the reported MIC associated with Cc1cc(SCc2nc3ccccc3s2)nc(SCc2nc3ccccc3s2)n1
50 µg/mL

---

- System: Pseudomonas aeruginosa
- protocolDescription: Antimicrobial activity against Pseudomonas aeruginosa at 100 ug/well after 24 hrs by agar well diffusion method
- Format: functional
- cond: read-out: DIZ
So basically: zone of inhibition at 100 µg/disc at 20 mm or higher? That is yes. Lower than 20 mm? That is no.

These recorded examples may help you get a feel for the data.
Cc1cc(Nc2nc3ccccc3s2)nc(SCc2nc3ccccc3s2)n1    no
Cc1cc(Sc2nc3ccccc3o2)nc(SCc2nc3ccccc3o2)n1    no
Cc1cc(Cl)nc(SCc2nc3ccccc3[nH]2)n1    no
Cc1cc(SCc2nc3ccccc3s2)nc(SCc2nc3ccccc3s2)n1    yes
Cc1cc(Nc2nc3ccccc3o2)nc(SCc2nc3ccccc3o2)n1    no
Cc1cc(SCc2nc3ccccc3[nH]2)nc(SCc2nc3ccccc3[nH]2)n1    yes

Does the compound Cc1cc(Sc2nc3ccccc3[nH]2)nc(SCc2nc3ccccc3[nH]2)n1 have recorded zone of inhibition at 100 µg/disc that is 20 mm or more?
no

Please answer likewise for Cc1cc(Cl)nc(SCc2nc3ccccc3s2)n1
no
